All values here come from paper PMC6445195.

SYSTEM NAME: hCA II (Homo sapiens)
Construct: from tissue; host or cells: fresh human erythrocytes
MEASUREMENT NOTES: biochemical
Format: biochemical
PROPERTY LABEL: Ki (nM)
One number for each entry, in nM.

Task item: Dear colleague, I am looking for the recorded Ki of the following molecule: `CCN(CC)Cn1c(=S)sc2ccccc21`
Reply: 100

====

SYSTEM NAME: hCA II (Homo sapiens, UniProt P00918)
Construct: from tissue; host or cells: fresh human erythrocytes
MEASUREMENT NOTES: biochemical
Assay type: biochemical
MEASUREMENT CONTEXT: three concentrations used; read-out: Ki hCA II
Labelling: Ki reported below 100 nM becomes 1; at or above becomes -1.

Task item: Strictly below 100 nM in Ki? `S=c1sc2ccccc2n1CN1CCCCC1`
Reply: -1

====

Give pKi for every item shown.
SYSTEM NAME: UniProt P22303
MEASUREMENT NOTES: biochemical
Assay type: biochemical
MEASUREMENT CONTEXT: read-out: Ki AChE
Give bare numbers, as −log10 of the molar value.

Below: 4 compounds and their reported pKi.
# SMILES REPR, PROPERTY LABEL, READOUT NUMBER
rows = [
    ("CC(C)OCNc1nccs1", "pKi", 7.38),
    ("S=c1sc2ccccc2n1CN1CCOCC1", "pKi", 7.59),
    ("S=c1sc2ccccc2n1CN1CCCCC1", "pKi", 7.74),
    ("S=c1oc2ccccc2n1CN1CCOCC1", "pKi", 7.49),
]

Would you kindly look at the next entry?
Task item: Write down the reported pKi of `S=c1oc2ccccc2n1CN1CCOC1` , test system: UniProt P22303.
Reply: 7.11

====

SYSTEM NAME: AChE (Homo sapiens)
Sequence (P22303 32-614): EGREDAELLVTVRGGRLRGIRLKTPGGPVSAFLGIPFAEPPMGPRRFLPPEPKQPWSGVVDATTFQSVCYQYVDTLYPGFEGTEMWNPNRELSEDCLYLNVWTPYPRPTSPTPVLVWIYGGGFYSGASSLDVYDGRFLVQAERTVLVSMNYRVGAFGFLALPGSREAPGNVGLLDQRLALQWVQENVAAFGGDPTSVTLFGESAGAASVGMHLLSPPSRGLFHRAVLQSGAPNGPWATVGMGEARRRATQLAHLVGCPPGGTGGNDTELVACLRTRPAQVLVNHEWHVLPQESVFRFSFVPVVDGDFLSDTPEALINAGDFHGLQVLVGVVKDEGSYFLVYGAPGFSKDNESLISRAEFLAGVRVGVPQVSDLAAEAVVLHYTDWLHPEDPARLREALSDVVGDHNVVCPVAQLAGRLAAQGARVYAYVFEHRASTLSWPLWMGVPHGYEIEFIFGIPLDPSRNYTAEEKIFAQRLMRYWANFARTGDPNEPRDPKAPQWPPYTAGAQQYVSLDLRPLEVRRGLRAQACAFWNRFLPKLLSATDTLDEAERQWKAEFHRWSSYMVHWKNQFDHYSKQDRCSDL
MEASUREMENT NOTES: biochemical
Assay type: biochemical
MEASUREMENT CONTEXT: Ellman; Tris/HCl pH 8.0, 25 °C; read-out: IC50 AChE
PROPERTY LABEL: pIC50
Numbers only, as −log10 of the molar value.

# SMILES REPR, SYSTEM NAME, pIC50
measured = [
    ("COCNc1nccs1", "AChE (Homo sapiens)", 7.10),
]

Required: pIC50, one value per molecule below.
1. S=c1oc2ccccc2n1CN1CCOCC1
2. S=c1oc2ccccc2n1CN1CCOC1
3. CC(C)OCn1c(=S)oc2ccccc21

Reply:
7.42
7.21
7.20

====

SYSTEM NAME: hCA II (Homo sapiens)
Construct: from tissue; host or cells: fresh human erythrocytes
MEASUREMENT NOTES: biochemical
Type: biochemical
MEASUREMENT CONTEXT: purified from human erythrocytes; PNA substrate, 22 °C; read-out: IC50 hCA II
PROPERTY LABEL: pIC50
Give bare numbers, as −log10 of the molar value.

// worked examples, pIC50 included
# COMPOUND, pIC50
records = [
    ("CC(C)OCn1c(=S)oc2ccccc21 [Compound 13, N-isopropoxymethylbenzoxazoline-2-thione]", 6.91),
    ("COCCOCNc1nccs1 [Compound 15, 2-(methoxyethoxy) methylaminothiazole]", 6.80),
    ("S=c1sc2ccccc2n1CN1CCCCC1 [Compound 4]", 7.00),
    ("CC(C)OCNc1nccs1 [Compound 16, 2-isopropoxymethylaminothiazole]", 6.78),
    ("S=c1oc2ccccc2n1CN1CCOCC1 [Compound 8, N-morfolinomethylbenzoxazoline-2-thion]", 6.92),
]

For every listed record, write down its pIC50.
1. COCNc1nccs1 [Compound 17, 2-(methoxy)methylaminothiazole]
2. CCN(CC)Cn1c(=S)oc2ccccc21 [Compound 6]
3. S=c1oc2ccccc2n1CN1CCOC1 [Compound 9]
4. S=c1sc2ccccc2n1CN1CCOCC1 [Compound 1, N-oxazinomethylbenzothiazoline-2-thione]
5. COCCOCn1c(=S)oc2ccccc21 [Compound 14]

Reply:
[6.73, 6.93, 6.92, 6.98, 6.89]
